experiment description: chemical genetic growth profiling, strain panel (AID 1159580);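 further: tested at 20 µM; growth read once vehicle control cultures reached saturation at 30 °C; 1 = growth at the plate median or of vehicle wells; lower values mean less growth of the strain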
assay context: S. cerevisiae deletion strains, growth OD, locus YIL066C, strain RNR3, active compounds read low
Screen size: about 5,500 compounds; about 2,000 (36%) were called active. Another 18% or so got no clear call; they are omitted. This is one part of the list.
parameter: normalized growth
# answer = number (no unit)

[[record]]
molecule = "CCCc1ncc(C[n+]2ccccc2C)c(N)n1"
parameter = "normalized growth"
value_reported = 1.02

[[record]]
molecule = "Cc1c(NC(C)C)c(=O)n(-c2ccccc2)n1C"
parameter = "normalized growth"
value_reported = 0.998

[[record]]
molecule = "NC(Cc1ccc(Cl)cc1)C(=O)O (stereo not drawn)"
parameter = "normalized growth"
value_reported = 0.982

[[record]]
molecule = "C/C(=C\\CO)CC[C@H](C)CCC[C@H](C)CCCC(C)C"
parameter = "normalized growth"
value_reported = 1.09

[[record]]
molecule = "Cn1c(=O)c2c(ncn2CCCl)n(C)c1=O"
parameter = "normalized growth"
value_reported = 1.02

[[record]]
molecule = "OC[C@H]1O[C@@H](Oc2ccc(O)cc2)[C@H](O)[C@@H](O)[C@@H]1O"
parameter = "normalized growth"
value_reported = 1.01


QUERY: I'd like to know its normalized growth. The molecule in question is CC1=C(C(=O)O)N2C(=O)[C@@H](NC(=O)[C@@H](N)c3ccc(O)cc3)[C@H]2SC1
RESULT: 0.98

QUERY: Check Cn1cnc2c1c(=O)[nH]c(=O)n2C too.
RESULT: 1.02

QUERY: Check CC(=O)Nc1c(I)cc(I)c(C(=O)O)c1I too.
RESULT: 1

====

experiment description: chemical genetic growth profiling, strain panel (AID 1159580);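 further: tested at 20 µM; growth read once vehicle control cultures reached saturation at 30 °C; 1 = growth at the plate median or of vehicle wells; lower values mean less growth of the strain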
assay context: S. cerevisiae deletion strains, growth OD, locus YKR091W, strain srl3, active compounds read low
Screen size: about 5,500 compounds; about 2,000 (36%) were called active. Roughly 18% stayed inconclusive and do not appear here. Some of the results follow.
parameter: normalized growth

The examples below pair each entry with its known result.
[[record]]
molecule = "CON"
parameter = "normalized growth"
value_reported = "0.998 (inactive)"

[[record]]
molecule = "CNC(=O)N(C)c1nnc(C(C)(C)C)s1"
parameter = "normalized growth"
value_reported = "0.974 (inactive)"

[[record]]
molecule = "Oc1cc2c(cc1O)C(c1ccccc1)CNCC2 (stereo not given)"
parameter = "normalized growth"
value_reported = "1 (inactive)"

[[record]]
molecule = "COc1ccc(CC(=O)c2ccc(O)cc2O)cc1"
parameter = "normalized growth"
value_reported = "0.988 (inactive)"

[[record]]
molecule = "O=C(O)C1=C(CSc2nnnn2CS(=O)(=O)O)CS[C@@H]2C(NC(=O)[C@H](O)c3ccccc3)C(=O)N12 (stereo not given in full)"
parameter = "normalized growth"
value_reported = "0.989 (inactive)"


QUERY: I'd like to know its normalized growth. The molecule in question is NNCc1ccccc1
RESULT: 0.985 (inactive)

QUERY: Check CC(=O)Nc1c(I)cc(I)c(C(=O)O)c1I too.
RESULT: 0.981 (inactive)

QUERY: Check O=C(O)[C@H]1/C(=C/CO)O[C@@H]2CC(=O)N21 too.
RESULT: 0.986 (inactive)

QUERY: Check COc1ccccc1OCC(O)COC(N)=O (stereo not given) too.
RESULT: 0.981 (inactive)

QUERY: Check COc1cc(OC)c2c(OC)c(-c3ccc4c(c3)OCO4)c(=O)oc2c1 too.
RESULT: 0.978 (inactive)
